Origin of the recorded values: patent US7022856B2

For each of the compounds below, state its pIC50.
targetUnderTest: human recombinant PDE5 (Homo sapiens)
measurementDescription: cGMP-PDE inhibition, one-step assay with human recombinant PDE5
measurementSetup: 0.15 μM 8-[H3]-cGMP, 30 min
Description: The compounds of structural formula (I) were tested for an ability to inhibit PDE5. The ability of a compound to inhibit PDE5 activity is related to the IC50 value for the compound, i.e., the concentration of inhibitor required for 50% inhibition of enzyme activity. The IC50 value for compounds pounds of structural formula (I) were determined using recombinant human PDE5. […] cGMP-PDE activity of compounds of the present invention was measured using a one-step assay adapted from Wells et al., Biochim. […]
Answers are plain numbers, as −log10 of the molar value.

Below, each entry is followed by its recorded pIC50 result.
INSERT INTO results (compound, valuetype, assayvalue) VALUES
  ('O=C(c1cc2ccccc2s1)N1CCc2c([nH]c3ccccc23)C1c1ccc2c(c1)OCO2 (centres unmarked)', 'pIC50', 6.51),
  ('c1ccc2c3c([nH]c2c1)C(c1ccc2c(c1)OCO2)N(c1nccc(N2CCOCC2)n1)CC3 (centres unmarked)', 'pIC50', 6.00),
  ('Oc1ccc(-c2ccnc(N3CCc4c([nH]c5ccccc45)C3c3ccc4c(c3)CCO4)n2)cc1 (centres unmarked)', 'pIC50', 8.00),
  ('O=C(c1cc2cc([N+](=O)[O-])ccc2s1)N1CCc2c([nH]c3ccccc23)C1c1ccc2c(c1)OCO2 (centres unmarked)', 'pIC50', 6.89),
  ('c1cncc(-c2ccnc(N3CCc4c([nH]c5ccccc45)C3c3ccc4c(c3)CCO4)n2)c1 (centres unmarked)', 'pIC50', 7.40);

Parameters: items (list). Returns: pIC50 for each item.
1. COCc1ccc(C(=O)N2CCc3c([nH]c4ccccc34)C2c2ccc3c(c2)OCO3)s1 (centres unmarked)
2. CN(C)c1ccc(C(=O)N2CCc3c([nH]c4ccccc34)C2c2ccc3c(c2)OCO3)cc1 (centres unmarked)
3. O=C(c1ccsc1)N1CCc2c([nH]c3ccccc23)C1c1ccc2c(c1)OCO2 (centres unmarked)
4. COc1ccc2sc(C(=O)N3CCc4c([nH]c5ccccc45)C3c3ccc4c(c3)OCO4)cc2c1 (centres unmarked)
5. Oc1ccc(-c2cc(N3CCc4c([nH]c5ccccc45)C3c3ccc4c(c3)CCO4)ncn2)cc1 (centres unmarked)

Result:
1: 6.49; 2: 6.17; 3: 6.05; 4: 7.52; 5: 7.30

Request: # query: pIC50 of entry O=C(CCl)Nc1ccc2sc(C(=O)N3CCc4c([nH]c5ccccc45)C3c3ccc4c(c3)OCO4)cc2c1 (centres unmarked)
Result: 7.40
